Test system: MDA-MB-435 melanoma
assay-explanation: NCI-60 one-dose screen, 48 h (100 = growth as untreated, 0 = no growth, -100 = all killed)
setup-conditions: 10 µM unless noted
This is part of a sample that, as a whole, favours compounds with a hit. Of some 83,000 tested, about 20% had one in any assay.
Label condition met when growth is strictly below 70%; otherwise label condition not met.

>>> category_label("CN(C)c1nc(-c2cccs2)n2nc(-c3ccc(Cl)cc3)cc2n1")
"condition met"
>>> category_label("CCCCCCCCCCCCNC(=O)N[C@H](C(=O)N[C@H]1/C=C/CCNC(=O)/C=C/[C@H](C)NC1=O)C(C)C")
"condition met"
>>> category_label("COc1cc(/C=C/c2cc(/C=C/c3ccc(O)c(OC)c3)n(C(=O)c3ccccc3Br)n2)ccc1O")
"condition met"
>>> category_label("Cc1cc(-c2ccc(N=Nc3c(S(=O)(=O)O)cc4cc(S(=O)(=O)O)cc(O)c4c3O)c(C)c2)ccc1N=Nc1c(S(=O)(=O)O)cc2cc(S(=O)(=O)O)cc(O)c2c1O")
"condition not met"
>>> category_label("C=CCN(CC#N)CC=C")
"condition not met"
>>> category_label("Cc1cc(O)ccc1Sc1ccccc1[N+](=O)[O-]")
"condition met"
>>> category_label("NC(CCC(=O)NC(CS)C(=O)NCC(=O)O)C(=O)O (stereo not given)")
"condition not met"
>>> category_label("CN1CCCN(CCNc2nccc(-c3c(-c4cccc(O)c4)nc4sccn34)n2)S1(=O)=O")
"condition met"
>>> category_label("O=C(C(=O)N1CCCC1)c1cn(CCCn2cc(C(=O)C(=O)N3CCCC3)c3cc(Br)ccc32)c2ccc(Br)cc12")
"condition not met"
>>> category_label("COc1cc(NC(=O)CSc2nc3ccc(Cl)cc3c(=O)n2-c2ccccc2)cc(OC)c1OC")
"condition not met"
>>> category_label("O=C(Nc1cccc(C2=NCCN2)c1)c1ccc(N=Nc2ccc(C(=O)Nc3cccc(C4=NCCN4)c3)cc2)cc1")
"condition met"
>>> category_label("COc1cc(C)c(Cl)cc1C1=NN(c2ccc(S(N)(=O)=O)cc2)C(/C=C/c2ccccc2)C1 (stereo not given)")
"condition met"
>>> category_label("Cc1ccc(C(CN(C)C)C(=O)c2ccccc2)cc1 (stereo not given)")
"condition met"
>>> category_label("O=C(N/N=C/c1ccc([N+](=O)[O-])cc1)c1ccccc1Nc1ccnc(C(F)(F)F)c1")
"condition not met"
>>> category_label("CCCCCCCCCCCCC1CCC(=O)O1 (stereo not given)")
"condition not met"
>>> category_label("N/C(=C\\C(=O)n1nc(-c2ccccc2)cc1N)c1ccccc1")
"condition met"
>>> category_label("NNc1ccc(S(N)(=O)=O)cc1")
"condition not met"
>>> category_label("COc1ccc(/C=C/c2nc(NCCCN(C)C)c3ccccc3n2)cc1")
"condition met"
>>> category_label("Fc1ccc(-c2cnc3nonc3n2)c(F)c1")
"condition not met"
>>> category_label("C=C1C(=O)O[C@H]2[C@H]1CC/C(COC(=O)NCc1ccc(Cn3c(=O)sn(CCCl)c3=O)cc1)=C\\CC[C@@]1(C)O[C@@H]21")
"condition not met"
